Reported melting point values follow for various compounds

Solved entries (count: 3):
1) CC(C)CCN1C(=O)C(NC(=O)Oc2ccccc2)C(=O)N(c2ccccc2)c2ccc(F)cc21 (stereo unspecified): 160 to 165 °C
2) c1ccc2c(c1)c1ccccc1c1cc(-c3ccc4c5ccccc5c5ccccc5c4c3)ccc21: 356 °C
3) CC(C)c1cc(-c2cc(C(=O)Cl)ccc2S(C)(=O)=O)on1: 102 to 105 °C

Q. Note melting point for the compound shown: CCCN1N=C2C(=Cc3ccc(Cl)cc3)CSCC2C1c1ccc(Cl)cc1 (stereo unspecified)
A. 118 to 122 °C

Q. Note melting point for the compound shown: O=C1Cc2cc(F)ccc2C(c2ccc(Cl)cc2)N1 (stereo unspecified)
A. 160 to 161 °C

Q. Note melting point for the compound shown: `ClCCCCOc1cccc(OCCCCCl)c1`
A. 85 to 86 °C

Q. Note melting point for the compound shown: `Cc1ccc([PH](=O)c2ccc(C)cc2)cc1`
A. 93.7 °C

Q. Note melting point for the compound shown: CC1Cc2cc(C3C(=O)Oc4c3cc(C(C)(C)C)cc4C(C)(C)C)ccc2O1 (stereo unspecified)
A. 136 to 152 °C

Q. Note melting point for the compound shown: `COc1ccc(CONCc2ccc(OC)cc2OC)cc1`
A. 52 to 55 °C

Q. Note melting point for the compound shown: `COc1nncc(-c2cccc(C(F)(F)F)c2)n1`
A. 95 to 97 °C

Q. Note melting point for the compound shown: CC(C)(C)C(F)(F)c1ccc(C[C@H](N)[C@H](O)c2cccc(Cl)c2)cc1 (racemic)
A. 105 to 107 °C
